Quick reference: pKd of the listed items.
target: Human CD38 (human, UniProt P28907 43-300); assay: SPR (Biacore), antibody from supernatant captured on Protein A, human CD38 injected, 1:1 fit
pKd: −log10 of the molar value.
MEASURE: pKd

| BINDER | QUANTITATIVE_RESULT |
| --- | --- |
| X02.87 (antibody, V domains shown, IgG4 S228P with the X02.1 VH; VL S96A relative to A02.1) VH: QLQLQESGPGLVKPSETLSLTCTVSGGSISSSSYYWSWIRQHPGKGLEWIGYIYYSGSTNYNPSLKSRVTISVDTLKNQISLRLTSVTAADTAVYYCARVGGAGGWPMDVWGQGTTVTVSS VL: QAVLTQPASLSASPGESARLTCTLPSDINVRYYNIYWYQQKPGSPPRYLLYYYSDSHKGQGSGVPSRFSGSKDVSTNSGILLISGLQSEDEADYYCMTWSSNGAGVFGGGTQLTVLG | 8.70 |
| X02.93 (antibody, V domains shown, IgG4 S228P with the X02.1 VH; VL M89I relative to A02.1) VH: QLQLQESGPGLVKPSETLSLTCTVSGGSISSSSYYWSWIRQHPGKGLEWIGYIYYSGSTNYNPSLKSRVTISVDTLKNQISLRLTSVTAADTAVYYCARVGGAGGWPMDVWGQGTTVTVSS VL: QAVLTQPASLSASPGESARLTCTLPSDINVRYYNIYWYQQKPGSPPRYLLYYYSDSHKGQGSGVPSRFSGSKDVSTNSGILLISGLQSEDEADYYCITWSSNGSGVFGGGTQLTVLG | 10.59 |
| X02.90 (antibody, V domains shown, IgG4 S228P with the X02.1 VH; VL N94T relative to A02.1) VH: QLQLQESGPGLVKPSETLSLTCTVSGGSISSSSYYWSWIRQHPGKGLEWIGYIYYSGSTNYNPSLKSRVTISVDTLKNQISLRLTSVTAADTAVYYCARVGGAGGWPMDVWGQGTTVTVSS VL: QAVLTQPASLSASPGESARLTCTLPSDINVRYYNIYWYQQKPGSPPRYLLYYYSDSHKGQGSGVPSRFSGSKDVSTNSGILLISGLQSEDEADYYCMTWSSTGSGVFGGGTQLTVLG | 9.26 |
| X02.80 (antibody, V domains shown, IgG4 S228P with the X02.1 VH; VL N94Q relative to A02.1) VH: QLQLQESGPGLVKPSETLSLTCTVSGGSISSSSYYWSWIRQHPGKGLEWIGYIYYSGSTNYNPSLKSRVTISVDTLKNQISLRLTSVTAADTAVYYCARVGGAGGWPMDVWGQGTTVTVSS VL: QAVLTQPASLSASPGESARLTCTLPSDINVRYYNIYWYQQKPGSPPRYLLYYYSDSHKGQGSGVPSRFSGSKDVSTNSGILLISGLQSEDEADYYCMTWSSQGSGVFGGGTQLTVLG | 8.84 |
| X02.94 (antibody, V domains shown, IgG4 S228P with the X02.1 VH; VL M89L relative to A02.1) VH: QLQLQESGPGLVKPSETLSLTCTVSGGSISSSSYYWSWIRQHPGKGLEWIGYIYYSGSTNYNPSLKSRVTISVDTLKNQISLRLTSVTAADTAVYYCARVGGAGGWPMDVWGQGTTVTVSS VL: QAVLTQPASLSASPGESARLTCTLPSDINVRYYNIYWYQQKPGSPPRYLLYYYSDSHKGQGSGVPSRFSGSKDVSTNSGILLISGLQSEDEADYYCLTWSSNGSGVFGGGTQLTVLG | 11.46 |
| X02.81 (antibody, V domains shown, IgG4 S228P with the X02.1 VH; VL N69A relative to A02.1) VH: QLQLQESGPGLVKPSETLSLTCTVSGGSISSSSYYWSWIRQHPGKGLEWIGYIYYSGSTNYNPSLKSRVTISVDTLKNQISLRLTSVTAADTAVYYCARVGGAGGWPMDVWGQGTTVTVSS VL: QAVLTQPASLSASPGESARLTCTLPSDINVRYYNIYWYQQKPGSPPRYLLYYYSDSHKGQGSGVPSRFSGSKDVSTASGILLISGLQSEDEADYYCMTWSSNGSGVFGGGTQLTVLG | 9.57 |

Just for reference, patent US20180305460A1 is where these values come from.
